# Study Target: UniProtKB P9WKE1
# Assay Notes: Inhibitory activity against thymidine monophosphate kinase (TMPK) in Mycobacterium tuberculosis
Reported values of log10(Ki) for individual entries
Assay Endpoint: log10(Ki) (log10 of the value in µM)

>  <Chemical String>
O=c1[nH]c(=O)n([C@H]2C[C@H](O)[C@@H](COP(=O)(O)O)O2)cc1Cc1ccccc1

>  <Assay Endpoint>
log10(Ki)

>  <Endpoint Result>
1.45

$$$$
>  <Chemical String>
Cc1cn([C@@H]2O[C@H](CI)[C@@H](N=[N+]=[N-])[C@H]2O)c(=O)[nH]c1=O

>  <Assay Endpoint>
log10(Ki)

>  <Endpoint Result>
2.69

$$$$
>  <Chemical String>
Cc1cn([C@H]2C[C@H](O)[C@@H](CN=[N+]=[N-])O2)c(=O)[nH]c1=O

>  <Assay Endpoint>
log10(Ki)

>  <Endpoint Result>
0.85

$$$$
>  <Chemical String>
Cc1cn([C@@H]2CO[C@H](COP(=O)(O)O)[C@@H](O)C2)c(=O)[nH]c1=O

>  <Assay Endpoint>
log10(Ki)

>  <Endpoint Result>
2.18

$$$$
>  <Chemical String>
O=c1[nH]c(=O)n([C@@H]2O[C@H](CO)[C@@H](O)[C@H]2O)cc1F

>  <Assay Endpoint>
log10(Ki)

>  <Endpoint Result>
2.72

$$$$
>  <Chemical String>
Cc1cn([C@@H]2O[C@H](C)[C@@H](N)[C@H]2O)c(=O)[nH]c1=O

>  <Assay Endpoint>
log10(Ki)

>  <Endpoint Result>
3.28

$$$$
>  <Chemical String>
Cc1cn([C@H]2C[C@H](F)[C@@H](CO)O2)c(=O)[nH]c1=O

>  <Assay Endpoint>
log10(Ki)

>  <Endpoint Result>
1.45

$$$$
>  <Chemical String>
CCc1cn([C@H]2C[C@H](O)[C@@H](CO)O2)c(=O)[nH]c1=O

>  <Assay Endpoint>
log10(Ki)

>  <Endpoint Result>
3.06

$$$$
>  <Chemical String>
C[C@@H]1CC[C@H](n2cc(Br)c(=O)[nH]c2=O)O1

>  <Assay Endpoint>
log10(Ki)

>  <Endpoint Result>
0.70

$$$$
>  <Chemical String>
CC(=O)NC[C@H]1O[C@@H](n2cc(C)c(=O)[nH]c2=O)C[C@@H]1O

>  <Assay Endpoint>
log10(Ki)

>  <Endpoint Result>
1.95

$$$$
>  <Chemical String>
Cc1cn([C@H]2C[C@H](O)[C@@H](CO)O2)c(=O)[nH]c1=O

>  <Assay Endpoint>
log10(Ki)

>  <Endpoint Result>
2.85

$$$$
>  <Chemical String>
Cc1cn([C@@H]2O[C@H](COP(=O)(O)O)[C@@H](O)[C@H]2N)c(=O)[nH]c1=O

>  <Assay Endpoint>
log10(Ki)

>  <Endpoint Result>
2.08

$$$$
>  <Chemical String>
Cc1cn([C@H]2C[C@H](O)[C@@H](CN)O2)c(=O)[nH]c1=O

>  <Assay Endpoint>
log10(Ki)

>  <Endpoint Result>
1.08

$$$$
>  <Chemical String>
O=c1[nH]c(=O)n([C@H]2C[C@H](O)[C@@H](COP(=O)(O)O)O2)cc1-c1ccco1

>  <Assay Endpoint>
log10(Ki)

>  <Endpoint Result>
2.15

$$$$
>  <Chemical String>
O=c1[nH]c(=O)n([C@H]2C[C@H](O)[C@@H](COP(=O)(O)O)O2)cc1-c1cccs1

>  <Assay Endpoint>
log10(Ki)

>  <Endpoint Result>
2.43

$$$$
>  <Chemical String>
Cc1cn([C@@H]2O[C@H](CO)[C@@H](O)[C@H]2F)c(=O)[nH]c1=O

>  <Assay Endpoint>
log10(Ki)

>  <Endpoint Result>
2.09

$$$$
>  <Chemical String>
Cc1cn([C@@H]2O[C@H](CO)[C@@H](O)[C@@H]2O)c(=O)[nH]c1=O

>  <Assay Endpoint>
log10(Ki)

>  <Endpoint Result>
2.38

$$$$
>  <Chemical String>
Cc1cn([C@@H]2O[C@H](CO)[C@@H](N=C(N)N)[C@H]2O)c(=O)[nH]c1=O

>  <Assay Endpoint>
log10(Ki)

>  <Endpoint Result>
2.15

$$$$
>  <Chemical String>
Cc1cn([C@@H]2O[C@H](COP(=O)(O)O)[C@@H](N)[C@H]2O)c(=O)[nH]c1=O

>  <Assay Endpoint>
log10(Ki)

>  <Endpoint Result>
1.65

$$$$
>  <Chemical String>
C[C@H]1O[C@@H](n2cc(F)c(=O)[nH]c2=O)[C@H](O)[C@@H]1O

>  <Assay Endpoint>
log10(Ki)

>  <Endpoint Result>
2.75

$$$$
>  <Chemical String>
O=c1[nH]c(=O)n([C@H]2C[C@H](O)[C@@H](COP(=O)(O)O)O2)cc1CO

>  <Assay Endpoint>
log10(Ki)

>  <Endpoint Result>
2.04

$$$$
>  <Chemical String>
Cc1cn([C@H]2C[C@H](N)[C@@H](CO)O2)c(=O)[nH]c1=O

>  <Assay Endpoint>
log10(Ki)

>  <Endpoint Result>
2.36

$$$$
>  <Chemical String>
O=c1[nH]c(=O)n([C@H]2C[C@H](O)[C@@H](CO)O2)cc1C(F)(F)F

>  <Assay Endpoint>
log10(Ki)

>  <Endpoint Result>
1.99

$$$$

###

# Study Target: Thymidylate kinase (Mycobacterium tuberculosis)
# Sequence (P9WKE1 whole entry): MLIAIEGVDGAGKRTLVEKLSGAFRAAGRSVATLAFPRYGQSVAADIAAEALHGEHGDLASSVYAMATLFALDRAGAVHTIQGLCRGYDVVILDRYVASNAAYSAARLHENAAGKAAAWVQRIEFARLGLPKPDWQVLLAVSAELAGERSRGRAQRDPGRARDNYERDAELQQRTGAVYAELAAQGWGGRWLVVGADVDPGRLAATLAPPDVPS
# Assay Notes: Inhibitory activity against thymidine monophosphate kinase (TMPKmt) in Mycobacterium tuberculosis using HPLC chromatography test
pKi: −log10 of the molar value.
Assay Endpoint: pKi

>  <Chemical String>
Cc1cn([C@H]2C[C@H](O)[C@@H](COP(=O)(O)OP(=O)(O)OP(=O)(O)OP(=O)(O)OP(=O)(O)OC[C@H]3O[C@@H](n4cnc5c(N)ncnc54)[C@H](O)[C@@H]3O)O2)c(=O)[nH]c1=O

>  <Study Target>
Thymidylate kinase (Mycobacterium tuberculosis)

>  <Endpoint Result>
4.52

$$$$
